Hello, the source for this data is patent US20160075653A1, in case you need it.

assay: Measurement of log P values by HPLC on reversed phase columns (methods [a] pH 2.3, [b] pH 2.7, [c] pH 7.8); type: physicochemical; conditions: HPLC on reversed phase column, method [c], pH 7.8
test readout: logP

molecule	result
O=C(N[C@@H]1C[C@@H]1c1ccc(Cl)cc1Cl)c1ncccc1Cl (relative stereo)	2.91^[c];
O=C(N[C@@H]1CC[C@@H]1c1ccc(Br)cc1C(F)(F)F)c1cccnc1C(F)(F)F (relative stereo)	3.42^[c];
Cc1occc1C(=O)N[C@@H]1C[C@@H]1c1ccc(Cl)cc1Cl (relative stereo)	2.89^[c];
O=C(N[C@@H]1CC[C@H]1c1ccccc1C(F)(F)F)c1ncccc1Br (relative stereo)	3.27^[c];
N#Cc1ccccc1C(=O)N[C@@H]1C[C@@H]1c1ccc(Cl)cc1Cl (relative stereo)	2.70^[c];

Hello, I would appreciate it if you could give logP for each entry below.
1. O=C(N[C@@H]1CC[C@H]1c1ccc(Br)cc1C(F)(F)F)c1cccnc1C(F)(F)F (relative stereo)
2. Cn1ncc(C(=O)N[C@@H]2C[C@@H]2c2ccc(Cl)cc2Cl)c1C(F)F (relative stereo)
3. O=C(N[C@@H]1CC[C@@H]1c1ccc(Br)cc1C(F)(F)F)c1ccccc1C(F)(F)F (relative stereo)

**A:**
1: 3.66^[c];; 2: 2.94^[c];; 3: 3.94^[c];

---

assay: Measurement of log P values by HPLC on reversed phase columns (methods [a] pH 2.3, [b] pH 2.7, [c] pH 7.8); format: physicochemical; settings: HPLC reversed phase, method [b] (pH 2.7)
test readout: logP

Hello, I would appreciate it if you could give logP for each entry below.
1. O=C(NC1CCC1c1ccc(Cl)cc1Cl)c1cccnc1C(F)(F)F (centres unmarked) [Example 470]
2. CC(C)Oc1ccc([C@H]2CCC[C@H]2NC(=O)c2ccccc2C(F)(F)F)cc1 (relative stereo)
3. O=C(NC1CCCC1c1ccccc1Br)c1c(F)cccc1F (centres unmarked)
4. O=C(N[C@@H]1CC[C@@H]1c1c(F)cccc1C(F)(F)F)c1cccnc1 (relative stereo)
5. O=C(NC1CC1c1ccc(Cl)cc1)c1ccccc1C(F)F (centres unmarked)
6. O=C(N[C@@H]1CCC[C@@H]1c1ccccc1F)c1ccccc1Cl (relative stereo)
7. O=C(N[C@@H]1CC[C@H]1c1ccccc1Cl)c1ccccc1Br (relative stereo)

**A:**
1: 3.45^[b]; 2: 3.90^[b]; 3: 3.35^[b]; 4: 2.16^[b]; 5: 2.90^[b]; 6: 3.12^[b]; 7: 3.33^[b]

---

For each entry below, report its logP value.
assay: Measurement of log P values by HPLC on reversed phase columns (methods [a] pH 2.3, [b] pH 2.7, [c] pH 7.8); format: physicochemical; settings: HPLC reversed phase, method [c] pH 7.8

Study these solved cases before continuing.
compound	result
O=C(N[C@@H]1CCC[C@@H]1c1ccc(C(F)(F)F)cc1)c1cccnc1 (relative stereo)	2.46^[c];
O=C(NC1CC1c1ccc(Cl)cc1)c1ncccc1C(F)(F)F (centres unmarked)	2.81^[c];
O=C(NC1CC1c1ccc(Cl)cc1)c1ccccc1C(F)(F)F (centres unmarked)	2.94^[c];
O=C(NC1CC1c1ccc(Cl)cc1)c1ccccc1[N+](=O)[O-] (centres unmarked)	2.45^[c];
O=C(NC1CC1c1ccc(Cl)cc1)c1c(F)cccc1C(F)(F)F (centres unmarked)	3.03^[c];

Hello, I would appreciate it if you could give logP for each entry below.
1. O=C(NC1CC1c1ccc(Cl)cc1)c1ccsc1I (centres unmarked)
2. O=C(N[C@@H]1CCC[C@@H]1c1ccccc1F)c1ccccc1Br (relative stereo)
3. O=C(N[C@@H]1CCC[C@@H]1c1ccccc1F)c1nccnc1C(F)(F)F (relative stereo)

**A:**
2.93^[c];
3.14^[c];
2.94^[c];

---

test: Measurement of log P values by HPLC on reversed phase columns (methods [a] pH 2.3, [b] pH 2.7, [c] pH 7.8); assay type: physicochemical; settings: HPLC on reversed phase column, method [b], pH 2.7
For each entry below, report its logP value.

compound	logP
O=C(N[C@@H]1CC[C@H]1c1cccc(F)c1C(F)(F)F)c1ccccc1Br (relative stereo)	3.57^[b]
O=C(N[C@@H]1CC[C@H]1c1cccc(F)c1C(F)(F)F)c1cccnc1Cl (relative stereo)	2.86^[b]
O=C(N[C@@H]1CC[C@@H]1c1cccc(F)c1C(F)(F)F)c1cccnc1Cl (relative stereo)	2.66^[b]
CC1=C(C(=O)N[C@@H]2C[C@@H]2c2ccc(Cl)cc2Cl)SCCO1 (relative stereo)	3.06^[b]
O=C(NC1CCC1c1ccccc1C(F)(F)F)c1nccnc1C(F)(F)F (stereo not shown) [Example 604]	3.18^[b]
Cc1nc(C(F)(F)F)c(C(=O)N[C@@H]2CC[C@H]2c2ccccc2C(F)(F)F)s1 (relative stereo)	3.49^[b]

--- query ---
**Q:** Look up and report measured logP for this entry: O=C(N[C@@H]1CC[C@H]1c1ccc(Cl)cc1C(F)(F)F)c1ccccc1C(F)(F)F (relative stereo)
**A:** 4.10^[b]

---

assay: Measurement of log P values by HPLC on reversed phase columns (methods [a] pH 2.3, [b] pH 2.7, [c] pH 7.8); type: physicochemical; conditions: reversed phase HPLC columns, pH 2.7, HPLC reversed phase, method [b] (pH 2.7); read-out: logP
test readout: chromatographic logP
Numbers only.

Study these solved cases before continuing.
compound	numeric value
O=C(N[C@@H]1CC[C@@H]1c1ccccc1Cl)c1ccc(Cl)cc1	3.35
O=C(N[C@@H]1CC[C@@H]1c1c(F)cccc1F)c1ccccc1C(F)(F)F	3.15
O=C(N[C@@H]1CC[C@@H]1c1ccc(Cl)cc1Cl)c1ccccc1I	3.75
O=C(N[C@@H]1CC[C@H]1c1ccccc1C(F)(F)F)c1ccccc1I	3.61
O=C(N[C@@H]1CC[C@@H]1c1ccccc1Cl)c1ncccc1Cl (relative stereo)	2.79
O=C(N[C@@H]1CC[C@H]1c1ccccc1C(F)(F)F)c1ccccc1Cl	3.42
O=C(N[C@@H]1CC[C@H]1c1ccc(Cl)cc1Cl)c1cccc(Cl)c1	4.4
O=C(N[C@@H]1CCC[C@@H]1c1ccccc1C(F)(F)F)c1cccnc1C(F)(F)F	3.29

**Q:** Look up and report measured chromatographic logP for this entry: O=C(NC1CCCC1c1ccc(Cl)cc1)c1cccnc1C(F)(F)F (stereo not drawn)
**A:** 2.83

---

For each entry below, report its logP value.
assay: Measurement of log P values by HPLC on reversed phase columns (methods [a] pH 2.3, [b] pH 2.7, [c] pH 7.8); assay type: physicochemical; settings: HPLC on reversed phase column, method [b], pH 2.7

compound	logP
O=C(N[C@@H]1CC[C@@H]1c1ccc(Cl)cc1C(F)(F)F)c1ccccc1 (relative stereo) [Example 680]	3.51^[b]
O=C(NC1CCC1c1ccccc1C(F)(F)F)c1ncccc1Br (stereo not shown) [Example 691]	3.34^[b]
O=C(NC1CCC1c1ccccc1C(F)(F)F)c1ncccc1Br (stereo not shown) [Example 605]	3.17^[b]
O=C(N[C@@H]1CC[C@@H]1c1ccccc1C(F)(F)F)c1nccnc1Cl (relative stereo) [Compound 623]	2.79^[b]

Hello, I would appreciate it if you could give logP for each entry below.
1. O=C(NC1CCC1c1ccccc1C(F)(F)F)c1ncccc1Br (stereo not shown) [Compound 695]
2. O=C(N[C@@H]1CC[C@H]1c1ccccc1C(F)(F)F)c1nccnc1Cl (relative stereo) [Example 622]
3. O=C(NC1CCC1c1ccc(Cl)cc1C(F)(F)F)c1sccc1I (stereo not shown) [Example 711]
4. O=C(N[C@@H]1CC[C@@H]1c1ccccc1C(F)(F)F)c1cccnc1 (relative stereo) [Compound 619]

**A:**
1: 3.17^[b]; 2: 2.98^[b]; 3: 4.28^[b]; 4: 2.06^[b]

Hello, I would appreciate it if you could give logP for each entry below.
1. O=C(N[C@@H]1CC[C@H]1c1cccc(F)c1C(F)(F)F)c1sccc1I (relative stereo) [Example 627]
2. O=C(N[C@@H]1CC[C@@H]1c1cccc(F)c1C(F)(F)F)c1ccccc1I (relative stereo) [Compound 599]
3. O=C(N[C@@H]1C[C@@H]1c1ccc(Cl)cc1Cl)c1cncnc1C(F)(F)F (relative stereo) [Example 610]
4. O=C(N[C@@H]1CC[C@H]1c1ccc(Cl)cc1C(F)(F)F)c1ccc(Cl)cc1 (relative stereo) [Example 706]

**A:**
1. 4.02^[b]
2. 3.39^[b]
3. 2.89^[b]
4. 4.43^[b]

Hello, I would appreciate it if you could give logP for each entry below.
1. O=C(N[C@@H]1CC[C@@H]1c1ccc(Cl)cc1C(F)(F)F)c1ccccc1C(F)(F)F (relative stereo) [Example 704]
2. O=C(N[C@@H]1CC[C@H]1c1ccc(Cl)cc1C(F)(F)F)c1ccccc1I (relative stereo) [Example 677]
3. O=C(N[C@@H]1CC[C@@H]1c1ccc(Cl)cc1Cl)c1cccnc1Cl (relative stereo) [Example 663]
4. O=C(N[C@@H]1CC[C@@H]1c1ccc(Cl)cc1Cl)c1sccc1I (relative stereo) [Example 671]

**A:**
1: 3.84^[b]; 2: 4.20^[b]; 3: 2.84^[b]; 4: 4.20^[b]
